Give measured IC50 for each item. Keep answers brief.
Molecular target: HMG-CoA reductase (Homo sapiens)
Construct: oxidation of NADPH by the catalytic subunit of HMGR in the presence of the substrate HMG-CoA; H8789 (HMG-CoA reductase)
Sequence (P04035 340-888 limits assumed): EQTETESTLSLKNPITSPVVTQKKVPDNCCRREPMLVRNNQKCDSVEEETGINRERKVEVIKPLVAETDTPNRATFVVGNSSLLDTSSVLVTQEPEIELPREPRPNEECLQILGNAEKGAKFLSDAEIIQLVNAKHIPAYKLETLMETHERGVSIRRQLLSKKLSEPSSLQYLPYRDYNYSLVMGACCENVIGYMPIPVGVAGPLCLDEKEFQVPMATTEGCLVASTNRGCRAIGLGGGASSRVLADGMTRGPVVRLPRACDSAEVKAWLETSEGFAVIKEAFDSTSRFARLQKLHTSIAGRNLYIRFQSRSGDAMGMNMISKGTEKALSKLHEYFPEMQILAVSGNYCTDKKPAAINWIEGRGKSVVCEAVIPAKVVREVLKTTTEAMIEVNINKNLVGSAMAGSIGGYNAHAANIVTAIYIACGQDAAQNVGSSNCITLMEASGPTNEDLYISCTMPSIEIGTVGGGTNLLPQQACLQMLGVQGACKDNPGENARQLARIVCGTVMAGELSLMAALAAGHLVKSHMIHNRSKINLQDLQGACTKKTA
Assay: HMG-CoA Reductase assay kit (spectrophotometric NADPH absorbance at 340 nm)
Details: NADPH and HMG-CoA both 200 μM, inhibitor concentrations varied from 0 nM to 50 nM, 37° C.
Give bare numbers, in nM.

{"MOLECULE": "CC(C)OC1C[C@H](OCc2ccccc2)C[C@@H](CCn2c(-c3ccc(F)cc3)c(-c3ccccc3)c(C(=O)Nc3ccccc3)c2C(C)C)O1 (some centres unmarked)", "VALUE_REPORTED": 4}

Value sought for every listed molecule: IC50.
1. CC(C)c1c(C(=O)Nc2ccccc2)c(-c2ccccc2)c(-c2ccc(F)cc2)n1CC[C@@H]1C[C@@H](O)CC(=O)O1
2. C=CCOC1C[C@H](OCc2ccccc2)C[C@@H](CCn2c(-c3ccc(F)cc3)c(-c3ccccc3)c(C(=O)Nc3ccccc3)c2C(C)C)O1 (some centres unmarked)
3. CC(C)c1c(C(=O)Nc2ccccc2)c(-c2ccccc2)c(-c2ccc(F)cc2)n1CC[C@@H]1C[C@@H](OCc2ccccc2)CC(OC(C)(C)C)O1 (some centres unmarked)

**A:**
[3, 1, 3]
